assayProcedure: self-splicing fitness, log relative to wild type (ln ratio); higher = more splicing; Tetrahymena group I intron in knt gene, E. coli kanamycin selection, DiMSum; sequences stand for … in CUCUCU…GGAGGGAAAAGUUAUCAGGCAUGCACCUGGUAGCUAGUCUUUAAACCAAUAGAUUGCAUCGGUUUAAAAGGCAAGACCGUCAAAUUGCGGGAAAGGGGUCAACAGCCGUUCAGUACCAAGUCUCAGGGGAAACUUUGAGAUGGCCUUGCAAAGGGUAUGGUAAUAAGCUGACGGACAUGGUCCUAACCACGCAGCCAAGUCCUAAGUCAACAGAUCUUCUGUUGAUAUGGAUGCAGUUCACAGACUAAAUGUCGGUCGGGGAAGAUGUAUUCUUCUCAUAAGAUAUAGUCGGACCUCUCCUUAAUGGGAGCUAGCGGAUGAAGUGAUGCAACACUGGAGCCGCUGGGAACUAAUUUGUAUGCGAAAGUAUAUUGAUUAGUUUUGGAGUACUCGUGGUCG;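 note: selection with 25 µg/mL kanamycin versus none on LB agar overnight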
conditionsUsed: 37 °C
Dear colleague, classification is by self-splicing fitness (ln), with ranges listed here: class A: < -2; class B: ≥ -2 and < -0.7; class C: ≥ -0.7

Study these solved cases before continuing.
Qu. Hi there! Could you help me figure out the category for AAUGAGCAAUAUUACGGCCU please?
Ans. class B

Qu. Hi there! Could you help me figure out the category for UUGAAGCAAUAUUACGUCAG please?
Ans. class C

Qu. Hi there! Could you help me figure out the category for AUCUAGCAAUAUUACGCCCU please?
Ans. class C

Qu. Hi there! Could you help me figure out the category for UAGUAGCAAUAUUACGGGGU please?
Ans. class A

Qu. Hi there! Could you help me figure out the category for GCGAAGCAAUAUUACGGGUC please?
Ans. class B

***
Qu. Hi there! Could you help me figure out the category for UCCCAGCAAUAUUACGAAAU please?
Ans. class B

Qu. Hi there! Could you help me figure out the category for GAUCAGCAAUAUUACGGUGU please?
Ans. class C

Qu. Hi there! Could you help me figure out the category for CUAGAGCAAUAUUACGCAUG please?
Ans. class C

Qu. Hi there! Could you help me figure out the category for GAUGAGCAAUAUUACGCCAG please?
Ans. class A

Qu. Hi there! Could you help me figure out the category for UCUAAGCAAUAUUACGGGAA please?
Ans. class B

Qu. Hi there! Could you help me figure out the category for CUAAAGCAAUAUUACGCAAC please?
Ans. class A

Qu. Hi there! Could you help me figure out the category for AUUGAGCAAUAUUACGAACC please?
Ans. class A

Qu. Hi there! Could you help me figure out the category for GCGAAGCAAUAUUACGGCAA please?
Ans. class B

Qu. Hi there! Could you help me figure out the category for AGGUAGCAAUAUUACGAUCA please?
Ans. class C

Qu. Hi there! Could you help me figure out the category for ACAAAGCAAUAUUACGAAAC please?
Ans. class B
